assay: Clearance in mouse hepatocytes at 10 uM preincubated for 5 mins […] measured over 60 mins by HPLC-MS/MS analysis; type: ADME, cell-based, Hepatocyte; conditions: read-out: CLH (converted)
Observable: CLint scaled at 10 µM
Please answer in the form of a number followed by its unit of measurement.

For the compound C[C@@]1(O)CC[C@H]2[C@H](CC[C@@H]3[C@@H]2CC[C@]2(C)[C@@H](C(=O)Cn4cc(C#N)cn4)CC[C@@H]32)C1 , give its reported CLint scaled at 10 µM.
102 mL/min/kg

---

Reported CLhep predicted at 10 µM by item:
assay: Clearance in rat hepatic microsomes at 10 uM preincubated for 5 mins followed by NADPH addition measured over 60 mins by HPLC-MS/MS analysis; format: ADME, Microsome; conditions: liver microsomes
Number only, in mL/min/kg; omit the unit.

Observe how each entry below is paired with its result.
- Mol: "C[C@@]1(O)CC[C@H]2[C@H](CC[C@@H]3[C@@H]2CC[C@]2(C)[C@@H](C(=O)Cn4cccn4)CC[C@@H]32)C1"
  CLhep predicted at 10 µM [mL/min/kg]: 41.7
- Mol: "Cc1cnn(CC(=O)[C@H]2CC[C@H]3[C@@H]4CC[C@@H]5C[C@](C)(O)CC[C@@H]5[C@H]4CC[C@]23C)c1"
  CLhep predicted at 10 µM [mL/min/kg]: 50
- Mol: "Cc1cnn(CC(=O)[C@H]2CC[C@H]3[C@@H]4CC[C@@H]5C[C@](C)(O)CC[C@@H]5[C@H]4CC[C@]23C)n1"
  CLhep predicted at 10 µM [mL/min/kg]: 53.3

# next compound below
In one line, give reported CLhep predicted at 10 µM of the entry C[C@@]1(O)CC[C@H]2[C@H](CC[C@@H]3[C@@H]2CC[C@]2(C)[C@@H](C(=O)Cn4cc(C#N)cn4)CC[C@@H]32)C1 .
36.7

---

The compounds listed here are annotated with their IC50.
assay: Displacement of [35S]TBPS from GABA-A receptor in Sprague-Dawley rat cerebral cortex cell membranes after 90 mins in presence of GABA by liquid scintillation counting

- Mol: "CC(=O)[C@H]1CC[C@H]2[C@@H]3CC[C@H]4C[C@H](O)CC[C@]4(C)[C@H]3CC[C@]12C"
  Reported Value: "22 nM"

Item Cc1ccn(CC(=O)[C@H]2CC[C@H]3[C@@H]4CC[C@@H]5C[C@](C)(O)CC[C@@H]5[C@H]4CC[C@]23C)n1 : provide IC50
45 nM

Indicate its recorded IC50; the compound in question is CC[C@@]1(O)CC[C@H]2[C@H](CC[C@@H]3[C@@H]2CC[C@]2(C)[C@@H](C(=O)Cn4cc(C#N)cn4)CC[C@@H]32)C1
36 nM

Quick one: give measured IC50 for COc1cnn(CC(=O)[C@H]2CC[C@H]3[C@@H]4CC[C@@H]5C[C@](C)(O)CC[C@@H]5[C@H]4CC[C@]23C)c1
28 nM

Given Cc1cnn(CC(=O)[C@H]2CC[C@H]3[C@@H]4CC[C@@H]5C[C@](C)(O)CC[C@@H]5[C@H]4CC[C@]23C)n1 , respond with its IC50.
21 nM

Specify measured IC50 for Cc1cnnn1CC(=O)[C@H]1CC[C@H]2[C@@H]3CC[C@@H]4C[C@](C)(O)CC[C@@H]4[C@H]3CC[C@]12C .
> 3000 nM

Report IC50, nothing else, for this compound: Cc1cn(CC(=O)[C@H]2CC[C@H]3[C@@H]4CC[C@@H]5C[C@](C)(O)CC[C@@H]5[C@H]4CC[C@]23C)nn1
17 nM

Find the measured IC50 of C[C@@]1(O)CC[C@H]2[C@H](CC[C@@H]3[C@@H]2CC[C@]2(C)[C@@H](C(=O)Cn4cc(C#N)cn4)CC[C@@H]32)C1 and report it.
7 nM

Tell me measured IC50 for C[C@@]1(O)CC[C@H]2[C@H](CC[C@@H]3[C@@H]2CC[C@]2(C)[C@@H](C(=O)Cn4cccn4)CC[C@@H]32)C1 please.
30 nM

---

molecular target: Voltage-gated potassium channel, IKs; KCNQ1(Kv7.1)/KCNE1(MinK) (Homo sapiens, UniProt P15382+P51787); assay: Inhibition of KCNQ1/minK (unknown origin) by patch clamp assay
Sequence (P51787 whole entry): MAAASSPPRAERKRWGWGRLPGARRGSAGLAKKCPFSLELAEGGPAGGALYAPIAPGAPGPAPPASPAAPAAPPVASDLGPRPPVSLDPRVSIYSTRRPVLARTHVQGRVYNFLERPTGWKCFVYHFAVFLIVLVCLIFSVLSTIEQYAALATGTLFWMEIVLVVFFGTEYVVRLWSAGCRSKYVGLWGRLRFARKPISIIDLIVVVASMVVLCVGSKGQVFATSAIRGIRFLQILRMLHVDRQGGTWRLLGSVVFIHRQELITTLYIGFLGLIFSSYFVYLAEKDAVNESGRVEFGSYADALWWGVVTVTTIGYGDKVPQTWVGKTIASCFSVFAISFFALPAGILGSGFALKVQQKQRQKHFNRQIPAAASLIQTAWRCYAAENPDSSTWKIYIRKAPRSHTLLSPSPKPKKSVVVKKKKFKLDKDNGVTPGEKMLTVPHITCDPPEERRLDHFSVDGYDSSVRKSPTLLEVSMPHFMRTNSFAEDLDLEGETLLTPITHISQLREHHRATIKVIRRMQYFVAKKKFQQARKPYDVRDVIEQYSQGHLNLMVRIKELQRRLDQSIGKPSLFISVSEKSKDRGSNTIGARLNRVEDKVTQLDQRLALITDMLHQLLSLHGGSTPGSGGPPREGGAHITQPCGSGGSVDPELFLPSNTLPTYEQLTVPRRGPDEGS
pIC50: −log10 of the molar value.
Observable: pIC50

Determine from records and report pIC50 for C[C@@]1(O)CC[C@H]2[C@H](CC[C@@H]3[C@@H]2CC[C@]2(C)[C@@H](C(=O)Cn4cc(C#N)cn4)CC[C@@H]32)C1 [ZURANOLONE]
< 4.52

---

assay: Clearance in human hepatic microsomes at 10 uM preincubated for 5 mins followed by NADPH addition measured over 60 mins by HPLC-MS/MS analysis; format: ADME, Microsome; settings: liver microsomes
Below, each entry is listed with its recorded CLhep predicted at 10 µM.
Numbers only; they are read as mL/min/kg.

- Mol: "C[C@@]1(O)CC[C@H]2[C@H](CC[C@@H]3[C@@H]2CC[C@]2(C)[C@@H](C(=O)Cn4cccn4)CC[C@@H]32)C1"
  Observable: "CLhep predicted at 10 µM"
  Reported Value: 5
- Mol: "Cc1cnn(CC(=O)[C@H]2CC[C@H]3[C@@H]4CC[C@@H]5C[C@](C)(O)CC[C@@H]5[C@H]4CC[C@]23C)c1"
  Observable: "CLhep predicted at 10 µM"
  Reported Value: 8.33

# input for lookup
Report measured CLhep predicted at 10 µM; entry is Cc1cnn(CC(=O)[C@H]2CC[C@H]3[C@@H]4CC[C@@H]5C[C@](C)(O)CC[C@@H]5[C@H]4CC[C@]23C)n1
5

---

biological target: Voltage-dependent L-type calcium channel subunit alpha-1C (Homo sapiens); test: Inhibition of Cav1.2 (unknown origin) by patch clamp assay
Sequence (Q13936 whole entry): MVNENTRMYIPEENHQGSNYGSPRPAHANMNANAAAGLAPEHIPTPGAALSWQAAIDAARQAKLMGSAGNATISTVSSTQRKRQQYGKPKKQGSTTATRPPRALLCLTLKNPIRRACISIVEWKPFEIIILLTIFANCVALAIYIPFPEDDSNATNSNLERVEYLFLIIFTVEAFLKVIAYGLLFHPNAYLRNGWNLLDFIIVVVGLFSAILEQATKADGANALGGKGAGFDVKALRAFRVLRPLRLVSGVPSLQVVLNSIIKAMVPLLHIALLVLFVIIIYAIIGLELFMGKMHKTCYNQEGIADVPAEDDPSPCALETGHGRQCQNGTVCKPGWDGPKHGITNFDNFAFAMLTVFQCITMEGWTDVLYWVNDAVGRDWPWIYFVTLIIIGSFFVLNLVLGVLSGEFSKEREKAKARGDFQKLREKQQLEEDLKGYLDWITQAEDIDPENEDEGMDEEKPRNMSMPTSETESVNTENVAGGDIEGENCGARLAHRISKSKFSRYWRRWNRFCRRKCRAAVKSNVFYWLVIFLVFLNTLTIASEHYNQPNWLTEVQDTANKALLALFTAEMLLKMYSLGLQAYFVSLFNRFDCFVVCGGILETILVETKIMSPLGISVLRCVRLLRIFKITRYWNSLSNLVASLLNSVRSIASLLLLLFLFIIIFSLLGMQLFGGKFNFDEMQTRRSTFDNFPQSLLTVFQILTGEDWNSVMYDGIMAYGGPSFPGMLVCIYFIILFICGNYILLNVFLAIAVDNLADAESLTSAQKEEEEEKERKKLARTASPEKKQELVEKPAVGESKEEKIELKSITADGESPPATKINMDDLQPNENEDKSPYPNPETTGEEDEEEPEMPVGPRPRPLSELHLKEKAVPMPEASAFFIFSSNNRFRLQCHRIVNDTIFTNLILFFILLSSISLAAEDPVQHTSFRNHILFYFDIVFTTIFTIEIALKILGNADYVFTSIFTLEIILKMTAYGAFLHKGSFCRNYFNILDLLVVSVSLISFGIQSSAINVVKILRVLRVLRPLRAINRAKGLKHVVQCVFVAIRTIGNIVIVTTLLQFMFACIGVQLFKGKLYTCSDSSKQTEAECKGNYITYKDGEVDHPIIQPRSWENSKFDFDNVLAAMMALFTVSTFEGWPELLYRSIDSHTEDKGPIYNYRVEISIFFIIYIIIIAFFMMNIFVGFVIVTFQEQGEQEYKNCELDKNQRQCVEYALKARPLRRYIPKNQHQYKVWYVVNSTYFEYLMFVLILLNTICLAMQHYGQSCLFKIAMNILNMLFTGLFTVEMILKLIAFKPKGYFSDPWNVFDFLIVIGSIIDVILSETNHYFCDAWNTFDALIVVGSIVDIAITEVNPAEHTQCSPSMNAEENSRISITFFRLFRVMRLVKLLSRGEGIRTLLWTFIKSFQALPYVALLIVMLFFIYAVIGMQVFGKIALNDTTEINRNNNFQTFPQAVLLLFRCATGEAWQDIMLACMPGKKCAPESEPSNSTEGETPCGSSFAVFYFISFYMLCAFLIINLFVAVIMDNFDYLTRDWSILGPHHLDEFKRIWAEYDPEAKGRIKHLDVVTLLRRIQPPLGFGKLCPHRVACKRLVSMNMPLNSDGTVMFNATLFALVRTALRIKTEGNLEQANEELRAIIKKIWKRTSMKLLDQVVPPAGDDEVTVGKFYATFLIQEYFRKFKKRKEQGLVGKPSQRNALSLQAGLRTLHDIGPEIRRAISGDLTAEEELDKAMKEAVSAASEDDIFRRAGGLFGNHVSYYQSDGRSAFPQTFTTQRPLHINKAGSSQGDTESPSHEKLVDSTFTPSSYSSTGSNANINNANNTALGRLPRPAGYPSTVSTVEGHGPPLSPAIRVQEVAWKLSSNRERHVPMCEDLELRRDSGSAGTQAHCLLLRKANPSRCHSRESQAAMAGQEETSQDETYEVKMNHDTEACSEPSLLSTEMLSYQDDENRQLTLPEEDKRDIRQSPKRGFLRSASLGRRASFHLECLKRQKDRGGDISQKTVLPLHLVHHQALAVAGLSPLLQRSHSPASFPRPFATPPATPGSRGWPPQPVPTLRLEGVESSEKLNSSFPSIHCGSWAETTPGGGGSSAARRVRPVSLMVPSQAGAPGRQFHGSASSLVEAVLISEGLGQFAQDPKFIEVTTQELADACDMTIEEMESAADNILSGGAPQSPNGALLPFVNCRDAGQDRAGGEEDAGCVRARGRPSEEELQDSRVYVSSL
Observable: IC50

Input C[C@@]1(O)CC[C@H]2[C@H](CC[C@@H]3[C@@H]2CC[C@]2(C)[C@@H](C(=O)Cn4cc(C#N)cn4)CC[C@@H]32)C1 , output reported IC50.
> 30 µM

---

Entries and their measured log10(IC50) follow.
test: Displacement of [35S]TBPS from GABA-A receptor in Sprague-Dawley rat cerebral cortex cell membranes after 90 mins in presence of GABA by liquid scintillation counting
In plain terms, each number is the log10 of measured IC50 in nM.

Answered examples (5):
- Mol: "Cc1ccnn1CC(=O)[C@H]1CC[C@H]2[C@@H]3CC[C@@H]4C[C@](C)(O)CC[C@@H]4[C@H]3CC[C@]12C"
  Reported Value: 1.90
- Mol: "C[C@@]1(O)CC[C@H]2[C@H](CC[C@@H]3[C@@H]2CC[C@]2(C)[C@@H](C(=O)Cn4cc(C(N)=O)cn4)CC[C@@H]32)C1"
  Reported Value: 1.81
- Mol: "C[C@@]1(O)CC[C@H]2[C@H](CC[C@@H]3[C@@H]2CC[C@]2(C)[C@@H](C(=O)Cn4ncc(C#N)n4)CC[C@@H]32)C1"
  Reported Value: 1.89
- Mol: "C[C@@]1(O)CC[C@H]2[C@H](CC[C@@H]3[C@@H]2CC[C@]2(C)[C@@H](C(=O)Cn4nccn4)CC[C@@H]32)C1"
  Reported Value: 1.04
- Mol: "C[C@@]1(O)CC[C@H]2[C@H](CC[C@@H]3[C@@H]2CC[C@]2(C)[C@@H](C(=O)Cn4cc(Cl)cn4)CC[C@@H]32)C1"
  Reported Value: 1.11

Attention now turns to another entry.
Identify measured log10(IC50) corresponding to C[C@@]1(O)CC[C@H]2[C@H](CC[C@@H]3[C@@H]2CC[C@]2(C)[C@@H](C(=O)Cn4ccc(C#N)n4)CC[C@@H]32)C1
1.11

---

experiment: Ratio of drug level in CD1 mouse brain to plasma at 5 mg/kg, iv measured at 30 mins post dose by LC/MS-MS analysis; format: ADME, organism-based; conditions: read-out: BPR
Reported Kp at 0.5 h values are given for each entry in this list.

Examples with answers:
- Mol: "C[C@@]1(O)CC[C@H]2[C@H](CC[C@@H]3[C@@H]2CC[C@]2(C)[C@@H](C(=O)Cn4nccn4)CC[C@@H]32)C1"
  Kp at 0.5 h: 1
- Mol: "Cc1cnn(CC(=O)[C@H]2CC[C@H]3[C@@H]4CC[C@@H]5C[C@](C)(O)CC[C@@H]5[C@H]4CC[C@]23C)n1"
  Kp at 0.5 h: 1
- Mol: "CC(=O)[C@H]1CC[C@H]2[C@@H]3CC[C@H]4C[C@H](O)CC[C@]4(C)[C@H]3CC[C@]12C"
  Kp at 0.5 h: 1.9

Give the measured Kp at 0.5 h for C[C@@]1(O)CC[C@H]2[C@H](CC[C@@H]3[C@@H]2CC[C@]2(C)[C@@H](C(=O)Cn4ccc(C#N)n4)CC[C@@H]32)C1
1.4

---

biological target: Cytochrome P450 3A4 (Homo sapiens, UniProt P08684); assay: Inhibition of CYP3A4 (unknown origin); type: ADME
Sequence (P08684 whole entry): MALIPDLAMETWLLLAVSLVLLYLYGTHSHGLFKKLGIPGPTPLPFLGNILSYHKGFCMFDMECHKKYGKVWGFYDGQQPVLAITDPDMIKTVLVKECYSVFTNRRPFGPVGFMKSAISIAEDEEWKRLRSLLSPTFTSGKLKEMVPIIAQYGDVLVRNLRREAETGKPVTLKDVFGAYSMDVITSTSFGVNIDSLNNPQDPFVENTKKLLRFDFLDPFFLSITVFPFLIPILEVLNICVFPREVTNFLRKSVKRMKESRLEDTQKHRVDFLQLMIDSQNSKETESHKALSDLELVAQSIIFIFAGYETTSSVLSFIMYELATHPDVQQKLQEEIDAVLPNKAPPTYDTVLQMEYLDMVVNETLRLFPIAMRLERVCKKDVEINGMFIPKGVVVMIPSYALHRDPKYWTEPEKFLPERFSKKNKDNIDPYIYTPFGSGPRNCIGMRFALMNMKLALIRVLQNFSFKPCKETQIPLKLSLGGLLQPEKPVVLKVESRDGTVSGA
Observable: IC50

Given C[C@@]1(O)CC[C@H]2[C@H](CC[C@@H]3[C@@H]2CC[C@]2(C)[C@@H](C(=O)Cn4cc(C#N)cn4)CC[C@@H]32)C1 [ZURANOLONE] , respond with its IC50.
> 30 µM

Source of measurements: ChEMBL document CHEMBL4038335
